// values below are reported Fold-Increase in yield
test system: amide synthetase McbA; experiment: Amidation assay with purified McbA variants, products analyzed by LC-MS; type: biochemical, Marinactinospora thermotolerans; conditions: best ML-predicted variant (ML-McbA) versus wt-McbA for the named product; purified enzyme 0.5 mg/mL, n=3
Please state the figure in fold; there is no need to write the unit.

# annotated cases, reported Fold-Increase in yield shown
[[record]]
compound = "CCN(CC)CCNC(=O)c1ccc(N)cc1 [Procainamide]"
recorded_number = 10

[[record]]
compound = "COc1cc(C(=O)NCc2ccc(OCCN(C)C)cc2)cc(OC)c1OC [Trimethobenzamide]"
recorded_number = 4.1

[[record]]
compound = "CCN1CCCC1CNC(=O)c1cc(S(N)(=O)=O)ccc1OC (stereo not shown) [Sulpiride]"
recorded_number = 6

[[record]]
compound = "CCN(CC)CCNC(=O)c1ccc(N)c(Cl)c1 [Declopramide]"
recorded_number = 2.7

[[record]]
compound = "CCCCOc1cc(C(=O)NCCN(CC)CC)c2ccccc2n1 [Cinchocaine]"
recorded_number = 1.7

[[record]]
compound = "COc1ccc(C(=O)NCc2ccc(OCCN(C)C)cc2)cc1OC [Itopride]"
recorded_number = 1.6


INPUT: What does the data say about its Fold-Increase in yield? Entry: COc1cc(C(=O)NC2CCCNC2)cc(OC)c1OC (stereo not shown) [Troxipide]
OUTPUT: 34
